// provenance: patent US20230414780A1

tgt: T1, human transferrin receptor (hTfR) fused to EGFP, on CHO cells (human, UniProt P02786 1-760)
T1 construct: whole, on cells; also called human TfR; CHO-hTfR-EGFP; not shown: EGFP from pEGFP-C1 vector, fused to the N-terminal (intracellular) end of hTfR
assaySummary: apparent Kd, flow cytometry, CHO cells
pKd: −log10 of the molar value.
Class definitions on pKd: one = under 7, two = from 7 up to 8, three = 8 and over

Previously resolved entries follow.
>  <binder>
B8^V28 (VHH) VHH: EVQLVESGGGVVQPGGSLRLSCAASGEIFSINFMRWYRQAPGKQREWVAGFTRDGSTFYPDSAKGRFTISRDNAKNTVYLQIDSLKPEDTAVYYCYMLDTWGQGTQVTVSS

>  <groupLabel>
two

$$$$
>  <binder>
B8^V17 (VHH) VHH: EVQLVESGGGVVQPGGSLRLSCAASGEIFSINFMRWYRQAPGKQREFVAGFTRDGSTNYPDSAKGRFTISRDNAKNTVYLQIDSLKPEDTAVYYCYMLDTWGQGTQVTVSS

>  <groupLabel>
three

$$$$
>  <binder>
C5^h8 (VHH) VHH: EVQLVESGGGVVQPGGSLRLSCAASGTDFSINFIRWVRQAPGKGLEWVAGFTATGNTNYADSVKGRFTISRDNTKNTLYLQIDSLRPEDTAVYYCYMLDKWGQGTQVTVSS

>  <groupLabel>
one

$$$$
>  <binder>
C5^h14 (VHH) VHH: EVQLVESGGGVVQPGGSLRLSCAASGTDFSINFIRWVRQAPGKGLEWVAGFTATGNTNYADSVKGRFTISRDNTKNALYLQMNSLRPEDTAVYYCYMLDKWGQGTQVTVSS

>  <groupLabel>
one

$$$$

Prompt line: Determine which band this binder sits in: B4a (VHH) VHH: EVQLVESGGGLVQAGGSLRLSCTASGRTVSNYRMGWFRQTPGKEREFVAAIAWAGGSLTYADSVKGRFTISRDNAKNTVYLQMNSLEPTDTAVYYCKGSRIFPTRDYWGKGTQVTVSS
Response line: one

Prompt line: Determine which band this binder sits in: C12b (VHH) VHH: QVQLVQSGGGLVQPGGSLRLSCAASGFTFSAYAMSWVRQAPGKGRELVASISRTGDGTYYADGMKGRFTISRDNAENTVSLQINSLKPEDTAIYYCGAGINPTKYWGQGTQVTVSS
Response line: one

Prompt line: Determine which band this binder sits in: VHH A4 (C5^V4) (VHH) VHH: EVQLVESGGGVVQPGGSLKLSCVASGTDFSINFIRWYRQAPGKQREFVAGFTATGATNYADSMKGRFTISRDNTKNAVYLQIDSLKPEDTAVYYCYMLDKWGQGTQVTVSS
Response line: three

Prompt line: Determine which band this binder sits in: B8^V12 (VHH) VHH: EVQLVESGGGVVQPGGSLRLSCAASGEIFYINFMRWYRQAPGKQREWVAGFTRDGSTNYPDSAKGRFTISRDNAKNTVYLQIDSLKPEDTAVYYCYMLDTWGQGTQVTVSS
Response line: three

Prompt line: Determine which band this binder sits in: B8^V24 (VHH) VHH: EVQLVESGGGVVQPGGSLRLSCAASGEIFSINFMEWYRQAPGKQREWVAGFTRDGSTNYPDSAKGRFTISRDNAKNTVYLQIDSLKPEDTAVYYCYMLDTWGQGTQVTVSS
Response line: one

Prompt line: Determine which band this binder sits in: B8^V21 (VHH) VHH: EVQLVESGGGVVQPGGSLRLSCAASGEIFSINNMRWYRQAPGKQREWVAGFTRDGSTNYPDSAKGRFTISRDNAKNTVYLQIDSLKPEDTAVYYCYMLDTWGQGTQVTVSS
Response line: two

Prompt line: Determine which band this binder sits in: B8^V3 (VHH) VHH: EVQLVESGGGVVQPGGSLRLSCAASGEIFSINFMRWYREAPGKQREWVAGFTRDGSTNYPDSAKGRFTISRDNAKNTVYLQIDSLKPEDTAVYYCYMLDTWGQGTQVTVSS
Response line: two

Prompt line: Determine which band this binder sits in: B8^h1 (VHH) VHH: EVQLVESGGGVVQPGGSLRLSCAASGEIFSINFMRWYRQAPGKGLEWVAGFTRDGSTNYPDSVKGRFTISRDNAKNTVYLQMNSLRPEDTAVYYCYMLDTWGQGTQVTVSS
Response line: three
